Collected from the literature: Kd of various compounds toward UniProt P09619.
Answers are plain numbers, in nM.

These solved cases illustrate the format of a correct answer.
1. CN(C[C@@H]1COCCO1)S(=O)(=O)Nc1ccc2ccc3ncc(-c4cnn(C)c4)cc3c(=O)c2c1: 543
2. Cc1cn(-c2cc(F)cc(NC(=O)c3ccc(C)c(Nc4nccc(-c5cccnc5)n4)c3)c2)cn1: 8.5

Consider the additional compound presented here.
// Kd value for O=c1c2cc(-c3ccnc4ccccc34)ccc2ncn1-c1ccc(N2CCOCC2)cc1 : 250

###

Consider the following pKd data for Platelet-derived growth factor receptor beta (Homo sapiens, UniProt P09619), collected from several reports.
Give bare numbers, as −log10 of the molar value.

1) CC(C)(C)c1cc(NC(=O)Nc2ccc(NC(=O)c3cc4ccccc4cn3)cc2)no1: 8.15
2) COc1cc2c(Oc3ccc(Nc4nn(C)cc4C(=O)NC4CCCCC4)cc3F)ccnc2cc1OCCCN1CCOCC1: 8.64
3) Cc1cc(NC(=O)c2ccc(C)c(Nc3nccc(-c4cccnc4)n3)c2)cc(-n2cnc(C)c2)c1: 7.92

get_value(item= CS(=O)(=O)CCCOc1cccc2c1ccn2-c1ccnc(N[C@H]2CC[C@H](C(=O)N3CCC(O)CC3)CC2)n1 , readout=pKd) returns 5.17
